tgt: BACE (Homo sapiens (Human), UniProt P56817)
Sequence (P56817 46-501 limits assumed): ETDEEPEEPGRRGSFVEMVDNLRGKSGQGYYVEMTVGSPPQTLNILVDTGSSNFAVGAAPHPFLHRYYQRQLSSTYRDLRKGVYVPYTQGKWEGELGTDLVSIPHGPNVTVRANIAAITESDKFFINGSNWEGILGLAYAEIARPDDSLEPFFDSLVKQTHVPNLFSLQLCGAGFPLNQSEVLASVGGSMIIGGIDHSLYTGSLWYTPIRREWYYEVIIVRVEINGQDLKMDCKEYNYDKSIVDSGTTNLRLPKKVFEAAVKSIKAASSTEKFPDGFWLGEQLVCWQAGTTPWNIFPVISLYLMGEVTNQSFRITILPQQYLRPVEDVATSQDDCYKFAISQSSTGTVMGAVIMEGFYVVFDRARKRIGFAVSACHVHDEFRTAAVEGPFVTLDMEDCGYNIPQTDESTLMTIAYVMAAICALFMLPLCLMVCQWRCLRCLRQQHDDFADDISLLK
methodDescription: BACE cell assay: secreted Aβ 1-40 in H4-APPsw cells (AlphaLISA/ELISA, Example 434B)
Assay type: cell-based
details: in vitro cell activity, Aβ 1-40 in culture media after overnight treatment
parameter: IC50

Given CCOC1CCC2(CC1)Cc1ccc(-c3cccc(C#N)c3)cc1C21N=C(N)N(C)O1 (stereo not shown) [Compound 49] , respond with its IC50.
< 1000 nM
